- measured.target: mCRFR2β (Mus musculus)
- Construct: expressed in transfected cells
- Sequence (Q60748 1-431 isoform Q60748-2): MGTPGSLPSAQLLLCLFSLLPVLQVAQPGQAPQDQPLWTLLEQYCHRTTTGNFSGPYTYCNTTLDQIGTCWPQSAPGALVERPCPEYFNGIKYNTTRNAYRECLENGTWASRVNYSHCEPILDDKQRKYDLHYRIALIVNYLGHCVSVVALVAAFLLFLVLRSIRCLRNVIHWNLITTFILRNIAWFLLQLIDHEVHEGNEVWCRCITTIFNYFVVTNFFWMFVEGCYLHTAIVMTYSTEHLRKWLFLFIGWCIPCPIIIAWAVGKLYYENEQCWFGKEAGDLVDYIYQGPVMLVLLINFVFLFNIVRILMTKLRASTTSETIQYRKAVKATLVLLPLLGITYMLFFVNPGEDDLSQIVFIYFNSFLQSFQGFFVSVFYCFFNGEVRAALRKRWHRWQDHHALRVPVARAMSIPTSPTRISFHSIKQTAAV
- assay: Competition binding scintillation proximity assay, mCRFR2β membranes
- setup.conditions: binding analysis, in words
Where no end group is shown, it is not given here.

substance	affinity for CRFR2
[h/rCRF^1-13]x[Svg^13-29]x[h/rCRF^31-41] (SEEPPISLDLTFHLLRKMIEIEKQEKEKQQAHSNRKLMEII; ends and bridges not checked) [compound 4, chimeric peptide of h/rCRF and Svg domains]	not

Source listed as patent US20080221021A1.
